Values from paper PMC5378893

biological target: T1, extracellular domain (ECD) of human epidermal growth factor receptor 2 (HER2) (Homo sapiens, UniProt P04626); assay: SPR; BIAcore T200; HER2/ECD immobilised on a CM5 chip by amine coupling to 1000 RU; IgG flowed in PBST (0.05% Tween 20) at 30 uL/min; regeneration 10 mM glycine pH 1.5; global fit to a 1:1 binding model; settings: both partners purified
T1 construct: human epidermal growth factor receptor 2 (HER2), extracellular domain; also called HER2/ECD
koff for assorted binders

| binder | display-unit | koff |
| --- | --- | --- |
| GH2-75 IgG (antibody, V domains shown, source: HEK293-F, transient transfection, purified (Protein A, Superdex 200)) VH: EVQLVESGGGLVQPGGSLRLSCAASGSTIGNSGIHWVRQAPGKGLEWVAYIGPYGGYTSYADSVKGRFTISADTSKNTAYLQMNSLRAEDTAVYYCARFDDYHWDGMDYWGQGTLVTVSS VL: DIQMTQSPSSLSASVGDRVIITCRASQDVSGYVAWYQQKPGKAPKLLIYSSGVPSRFSGSGSGTDFTLTISSLQPEDFATYYCQQYYNWPVTFGQGTKVEIK | s⁻¹ | 0.000149 |
| GH2-95 IgG (antibody, V domains shown, source: HEK293-F, transient transfection, purified (Protein A, Superdex 200)) VH: EVQLVESGGGLVQPGGSLRLSCAASGFTIDSWGIHWVRQAPGKGLEWVAGIGPFWGYTSYADSVKGRFTISADTSKNTAYLQMNSLRAEDTAVYYCARFGIHFDGIMDYWGQGTLVTVSS VL: DIQMTQSPSSLSASVGDRVTITCRASQDVSGGVAWYQQKPGKAPKLLIFGSTWLYSGVPLRFSGSGSGTDFTLTISSLQPEDFATYYCQQYYDWPLTFGQGTKVEIK | s⁻¹ | 0.000244 |
| GH2-81 IgG (antibody, V domains shown, source: HEK293-F, transient transfection, purified (Protein A, Superdex 200)) VH: EVQLVESGGGLVQPGGSLRLSCAASGFTINDYGIHWVRQAPGKGLEWVAGIGPFGGYTSYADSVKGRFTISADTSKNTAYLQMNSLRAEDTAVYYCARFGVLFDGVMDYWGQGTLVTVSS VL: DIQMTQSPSSLSASVGDRVTITCRASQDVNDGVAWYQQKPGKAPKLLISFTTGLYSGVPSRFSGSGSGTDFTLTISSLQPEDFATYYCQQYYNWPITFGQGTKVEIK | s⁻¹ | 0.0131 |
| GH2-7 IgG (antibody, V domains shown, source: HEK293-F, transient transfection, purified (Protein A, Superdex 200)) VH: EVQLVESGGGLVQPGGSLRLSCAASGFTIDDYFIHWVRQAPGKGLEWVAGIGPSWGYTFYADSVKGRFTISADTSKNTAYLQMNSLRAEDTAVYYCARFGHNFVNGMDYWGQGTLVTVSS VL: DIQMTQSPSSLSASVGDRVTITCRASQDVSGWVAWYQQKPGKAPKLLISGTAGLYSGVPSRFSGSGSGTDFTLTISSLQPEDFATYYCQQYYDFPVTFGQGTKVEIK | s⁻¹ | 0.0608 |
| GH2-91 IgG (antibody, V domains shown, source: HEK293-F, transient transfection, purified (Protein A, Superdex 200)) VH: EVQLVESGGGLVQPGGSLRLSCAASGFTINNFGIHWVRQAPGKGLEWVASIGPFWGYTSYADSVKGRFTISADTSKNTAYLQMNSLRAEDTAVYYCARFGNDYDGVMDYWGQGTLVTVSS VL: DIQMTQSPSSLSASVGDRVTITCRASHDVGWGVAWYQQKPGKAPKLLISWPTYLYSGVPSRFSGSGSGTDFTLTISSLQPEDFATYYCQQYFSYPITFGQGTKVEIK | s⁻¹ | 0.00679 |
